Tested on: 186277-243-T-J2-PDC complex spheroids, viability;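 also: spheroids exposed to compounds for 7 days before viability read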
ASSAY TEXT: Anticancer human tumor 186277-243-T-J2-PDC patient-derived colon adenocarcinoma cell line growth inhibition [RAS]
RUN PARAMETERS: curve of first compound; second compound 0.1 µM
QUANTITY: pIC50
Numbers only, as −log10 of the molar value.

Some entries whose results are on file:
State its pIC50 for this compound: CCc1c2c(nc3ccc(O)cc13)-c1cc3c(c(=O)n1C2)COC(=O)[C@]3(O)CC + C=CC(=O)N1CCN(c2nc(OCC3CCCN3C)nc3c(F)c(-c4nc(N)cc(C)c4C(F)(F)F)c(Cl)cc23)C(C)C1 7.65

Identify measured pIC50 associated with CC(Nc1ccc2c(c1)OCCn1cc(N3C(=O)OCC3C(F)F)nc1-2)C(N)=O (centres undefined) + C=CC(=O)N1CCN(c2nc(OCC3CCCN3C)nc3c(F)c(-c4nc(N)cc(C)c4C(F)(F)F)c(Cl)cc23)C(C)C1 5.99

Consider the compound NC1c2ccccc2OC12CCN(c1cnc3c(N4CCCc5ncccc54)n[nH]c3n1)CC2 (centres undefined) + C=CC(=O)N1CCN(c2nc(OCC3CCCN3C)nc3c(F)c(-c4nc(N)cc(C)c4C(F)(F)F)c(Cl)cc23)C(C)C1 . State its measured pIC50. 5.04

Shifting focus to the compound that follows.
Name the recorded pIC50 of the item CC(C)n1nc(-c2ccc3oc(N)nc3c2)c2c(N)ncnc21 + C#Cc1c(F)ccc2cc(O)cc(-c3ncc4c(N5CC6CCC(C5)N6)nc(OCC56CCCN5CC(F)C6)nc4c3F)c12 in your answer. 8.74
